Tested on: Sommerweizens Sorte Moskowskaya 35
Assay: Field test of gametocidal activity, spring wheat Moskowskaya 35
Type: in vivo, Weizen
Settings: Moskowskaya 35; period V; 1% aqueous emulsion; 6 kg/ha in 600 l water; control = 100
value_kind: Prozentsatz des Ansetzens von Samen bei freier Bestäubung

Some compounds with recorded Prozentsatz des Ansetzens von Samen bei freier Bestäubung:
>>> meas_value("ClCC(Br)CC(Br)Br (centres unmarked)")
"95,5%"
>>> meas_value("CC(Br)CBr (centres unmarked)")
"87,9%"
>>> meas_value("BrCC(Br)C(Br)Br (centres unmarked)")
"83,2%"

Dear colleague, I am looking for the recorded Prozentsatz des Ansetzens von Samen bei freier Bestäubung of the following compound: BrCCCBr 85,6%

So what does the record say about Prozentsatz des Ansetzens von Samen bei freier Bestäubung for CCCCC(Br)CC(Br)(Br)Br (centres unmarked) ? 93,7%

---

This section presents molecules with their documented Kornzahl der Ähre im Isolator values.
Tested on: diploidem Roggen Kharkovskaya 55
Assay: Field test of gametocidal activity, diploid rye Kharkovskaya 55
Assay type: in vivo
Details: Kharkovskaya 55; period V; 1% aqueous emulsion; 6 kg/ha in 600 l water

>>> meas_value("CC(Br)CBr (centres unmarked) [Beispiel 5, 1,2-Dibrompropan]")
"0,8"

What value of Kornzahl der Ähre im Isolator has been recorded for this entry: BrCCC(Br)Br [Beispiel 1, 1,1,3-Tribrompropan] 1,2

Reported Kornzahl der Ähre im Isolator for CCCCCC(Br)CBr (centres unmarked) [Beispiel 11, 1,2-Dibromheptan] : what is it? 0,0

Suppose we examine the molecule ClC(Br)CC(Br)Br (centres unmarked) [Beispiel 6, 1,1,3-Tribrom-3--chlorpropan] ; what Kornzahl der Ähre im Isolator value has been reported? 0,1

Please give the measured Kornzahl der Ähre im Isolator for this molecule: CCCCC(Br)CC(Br)Br (centres unmarked) [Beispiel 10, 1,1,3-Tribromheptan] 0,1

---

Assay: Toxicity in animal test (LD50)
Design: species or system Mäuse
Details: in vivo, mice stated only for 1,1,3-Tribrompropan, species not given for the others
value_kind: LD50

// below: answered compounds
>>> meas_value("ClCC(Br)CBr (stereo not drawn)")
"~170 mg/kg"
>>> meas_value("BrCCCBr")
"473 mg/kg"

// next item, LD50 requested
What does the data say about its LD50? Entry: BrCCC(Br)Br 540 mg/kg

---

Test system: Sommerweizens Sorte Rodina
Assay: Field test of gametocidal activity, spring wheat Rodina
Assay type: in vivo, Weizen
Details: period V, 1% aqueous emulsion, 6 kg/ha in 600 l water, control = 100
value_kind: Prozentsatz des Ansetzens von freier Bestäubung

>>> meas_value("CCCCCC(Br)CBr (stereo not shown)")
"80,9%"

Any idea what Prozentsatz des Ansetzens von freier Bestäubung was measured for CCCCC(Br)CC(Br)Br (stereo not shown) ? 83,7%

Report Prozentsatz des Ansetzens von freier Bestäubung for CCCCC(Br)CC(Br)(Br)Br (stereo not shown) please. 87,6%

For the compound shown here, BrCCCBr , give the reported Prozentsatz des Ansetzens von freier Bestäubung. 91,8%

---

Test system: Sommerweizens Sorte Moskowskaya 35
Assay: Field test of gametocidal activity, spring wheat Moskowskaya 35
Type: in vivo, Weizen
Conditions: Moskowskaya 35; period V; 1% aqueous emulsion; 6 kg/ha in 600 l water; control = 100
value_kind: Prozentsatz des Ansetzens von Samen bei freier Bestäubung

>>> meas_value("BrCCC(Br)Br [Beispiel 1, 1,1,3-Tribrompropan]")
"89,5%"
>>> meas_value("ClC(Br)CC(Br)Br (centres unmarked) [Beispiel 6, 1,1,3-Tribrom-3--chlorpropan]")
"98,9%"
>>> meas_value("CCCCC(Br)CC(Br)Br (centres unmarked) [Beispiel 10, 1,1,3-Tribromheptan]")
"94,7%"
>>> meas_value("ClCC(Br)CBr (centres unmarked) [Beispiel 7, 1,2-Dibrom-3-chlorpropan]")
"88,5%"

Then there is this compound:
Find the recorded Prozentsatz des Ansetzens von Samen bei freier Bestäubung belonging to BrCC(Br)CBr [Beispiel 4, 1,2,3-Tribrompropan] and report it. 89,3%

---

Tested on: tetraploidem Roggen Belta
Experiment: Field test of gametocidal activity, tetraploid rye Belta
Format: in vivo
Settings: period V, 1% aqueous emulsion, 6 kg/ha in 600 l water
value_kind: Kornzahl der Ähre im Isolator

Below are worked cases with known answers.
>>> meas_value("ClC(Br)CC(Br)Br (stereo not drawn)")
"0,1"
>>> meas_value("ClCC(Br)CC(Br)Br (stereo not drawn)")
"0,8"
>>> meas_value("ClCC(Br)CBr (stereo not drawn)")
"0,0"
>>> meas_value("BrCCC(Br)Br")
"1,2"
>>> meas_value("BrCC(Br)CBr")
"0,0"

Proceed to the following item.
Please look up its Kornzahl der Ähre im Isolator: BrCC(Br)C(Br)Br (stereo not drawn) 0,6

---

Tested on: Sommerweizens Sorte Botanicheskaya 4
Test: Field test of gametocidal activity, spring wheat Botanicheskaya 4
Assay type: in vivo, Weizen
Settings: period V, 1% aqueous emulsion, 6 kg/ha in 600 l water
From the text: Die gametozide Aktivität der erfindungsgemäßen Sterilisationsmittel war in Feldversuchen in verschiedenen bodenklimatischen Zonen mit Teilstücken von 10 m^2 Größe in dreibis viermaliger Wiederholung festgestellt. Jedes Sterilisationsmittel wurde mindenstens 5 Jahre lang geprüft. Die Entwicklung der Perioden der Organogenese wird zytologisch überwacht. Die Behandlung von Pflanzen mit dem Sterilisationsmittel erfolgt am Anfang der fünften Periode der Organogenese nach Kupermann. […]
value_kind: Kornzahl der Ähre bei freier Bestäubung

What does the data say about its Kornzahl der Ähre bei freier Bestäubung? Entry: BrCCCBr 24,7

Please look up its Kornzahl der Ähre bei freier Bestäubung: CCCCC(Br)CC(Br)(Br)Br (stereo not shown) 28,1

What value of Kornzahl der Ähre bei freier Bestäubung has been reported for the following compound? CCCCCC(Br)CBr (stereo not shown) 23,6

Can you look up the measured Kornzahl der Ähre bei freier Bestäubung of CCCCCC(Br)C(Br)Br (stereo not shown) for me? 29,2

---

System: Tritikale PRAG-109
Assay: Field test of gametocidal activity, triticale PRAG-109
Type: in vivo
Settings: period V, 1% aqueous emulsion, 6 kg/ha in 600 l water, control = 100
value_kind: Prozentsatz des Ansetzens von Samen bei freier Bestäubung

Examples from the recorded data:
>>> meas_value("CCCCC(Br)CC(Br)Br (stereo not shown)")
"86,4%"
>>> meas_value("CCCCC(Br)CC(Br)(Br)Br (stereo not shown)")
"89,6%"
>>> meas_value("BrCC(Br)CBr")
"88,4%"

For the compound ClCC(Br)CBr (stereo not shown) , what Prozentsatz des Ansetzens von Samen bei freier Bestäubung is on record? 93,0%

---

Tested on: Tritikale PRAG-109
Assay: Field test of gametocidal activity, triticale PRAG-109
Format: in vivo
Conditions: period V, 1% aqueous emulsion, 6 kg/ha in 600 l water
Excerpt: Die gametozide Aktivität der erfindungsgemäßen Sterilisationsmittel war in Feldversuchen in verschiedenen bodenklimatischen Zonen mit Teilstücken von 10 m^2 Größe in dreibis viermaliger Wiederholung festgestellt. Jedes Sterilisationsmittel wurde mindenstens 5 Jahre lang geprüft. Die Entwicklung der Perioden der Organogenese wird zytologisch überwacht. Die Behandlung von Pflanzen mit dem Sterilisationsmittel erfolgt am Anfang der fünften Periode der Organogenese nach Kupermann. […]
Recorded Kornzahl der Ähre bei freier Bestäubung, one value per entry.

Here are 3 compounds together with their reported answers.
>>> meas_value("CCCCC(Br)CC(Br)Br (stereo not shown) [Beispiel 10, 1,1,3-Tribromheptan]")
"59,6"
>>> meas_value("BrCC(Br)CBr [Beispiel 4, 1,2,3-Tribrompropan]")
"40,5"
>>> meas_value("CCCCC(Br)CC(Br)(Br)Br (stereo not shown) [Beispiel 9, 1,1,1,3-Tetrabromheptan]")
"61,8"

Under Tritikale PRAG-109: Kornzahl der Ähre bei freier Bestäubung value of ClCC(Br)CBr (stereo not shown) [Beispiel 7, 1,2-Dibrom-3-chlorpropan] ? 42,6

---

Tested on: Tritikale PRAG-109
Assay: Field test of gametocidal activity, triticale PRAG-109
Format: in vivo
Settings: period V, 1% aqueous emulsion, 6 kg/ha in 600 l water
Source text: Die gametozide Aktivität der erfindungsgemäßen Sterilisationsmittel war in Feldversuchen in verschiedenen bodenklimatischen Zonen mit Teilstücken von 10 m^2 Größe in dreibis viermaliger Wiederholung festgestellt. Jedes Sterilisationsmittel wurde mindenstens 5 Jahre lang geprüft. Die Entwicklung der Perioden der Organogenese wird zytologisch überwacht. Die Behandlung von Pflanzen mit dem Sterilisationsmittel erfolgt am Anfang der fünften Periode der Organogenese nach Kupermann. […]
value_kind: Kornzahl der Ähre im Isolator

Recorded Kornzahl der Ähre im Isolator of CCCCC(Br)CC(Br)(Br)Br (stereo not shown) [Beispiel 9, 1,1,1,3-Tetrabromheptan] , please. 0,0

Query: Kornzahl der Ähre im Isolator; subject: CCCCC(Br)CC(Br)Br (stereo not shown) [Beispiel 10, 1,1,3-Tribromheptan] 0,0

May I ask what Kornzahl der Ähre im Isolator has been recorded for ClCC(Br)CBr (stereo not shown) [Beispiel 7, 1,2-Dibrom-3-chlorpropan] ? 1,1

For BrCC(Br)CBr [Beispiel 4, 1,2,3-Tribrompropan] , what is its reported Kornzahl der Ähre im Isolator? 0,2

---

System: Sommerweizens Sorte Moskowskaya 35
Assay: Field test of gametocidal activity, spring wheat Moskowskaya 35
Type: in vivo, Weizen
Settings: read-out: Prozentsatz der Sterilität
Text: Die gametozide Aktivität der erfindungsgemäßen Sterilisationsmittel war in Feldversuchen in verschiedenen bodenklimatischen Zonen mit Teilstücken von 10 m^2 Größe in dreibis viermaliger Wiederholung festgestellt. Jedes Sterilisationsmittel wurde mindenstens 5 Jahre lang geprüft. Die Entwicklung der Perioden der Organogenese wird zytologisch überwacht. Die Behandlung von Pflanzen mit dem Sterilisationsmittel erfolgt am Anfang der fünften Periode der Organogenese nach Kupermann. […]
Listing of recorded pest or weed control at 6000 g/ha by entry.
State just the number; it will be interpreted in %.

>>> meas_value("BrCCC(Br)Br")
99.9
>>> meas_value("ClC(Br)CC(Br)Br (stereo not drawn)")
96.3

Record request: pest or weed control at 6000 g/ha value, item ClCC(Br)CBr (stereo not drawn) 100
